- TESTED_SYSTEM: T1, Human CCR8 (C-C chemokine receptor type 8) expressed on CHO-S cells (human, UniProt P51685 1-355)
- T1 construct: also called huCCR8; human CCR8-expressing CHO-S cells
- T1 sequence (P51685 whole entry): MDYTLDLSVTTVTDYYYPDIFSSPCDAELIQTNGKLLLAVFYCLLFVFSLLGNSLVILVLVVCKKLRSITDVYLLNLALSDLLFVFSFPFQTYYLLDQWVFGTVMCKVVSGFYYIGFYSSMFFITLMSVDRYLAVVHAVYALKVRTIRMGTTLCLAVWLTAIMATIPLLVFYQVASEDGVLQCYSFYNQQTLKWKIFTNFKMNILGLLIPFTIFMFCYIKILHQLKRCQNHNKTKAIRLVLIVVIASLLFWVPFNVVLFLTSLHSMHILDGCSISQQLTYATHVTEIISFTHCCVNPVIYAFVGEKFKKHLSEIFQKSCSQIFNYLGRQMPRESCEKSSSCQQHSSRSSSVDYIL
- PROCEDURE_SUMMARY: flow cytometry, human CCR8-overexpressing against parental CHO-S cells
ATTRIBUTE_MEASURED: Flow (fold over parent) (fold)

1. 7B16.002 (CDR H3 alanine scan variant of 7-B16) (antibody, human IgG1, kappa, V domains shown) VH: EVQLVESGGGLVQPKGSLKLSCAASGFTFNTYAMNWVRQAPGKGLEWVARIRSKSNNYATYYADSVKDRFTISRDDSQSMLYLQMNNLKTEDTAMYYCARGLLRYRFFDVWGAGTTVTVSS VL: DIVMTQAEPSVPVTPGESISISCRSSKSLLHSNGNTYLYWFLQRPGQSPQLLIYRMSNLASGVPDRFSGSGSGTAFTLRISRVEAEDVGVYYCMQHLEYPFTFGGGTKLEIKR ... 8
2. 7B16.004 (CDR H3 alanine scan variant of 7-B16) (antibody, human IgG1, kappa, V domains shown) VH: EVQLVESGGGLVQPKGSLKLSCAASGFTFNTYAMNWVRQAPGKGLEWVARIRSKSNNYATYYADSVKDRFTISRDDSQSMLYLQMNNLKTEDTAMYYCVRALLRYRFFDVWGAGTTVTVSS VL: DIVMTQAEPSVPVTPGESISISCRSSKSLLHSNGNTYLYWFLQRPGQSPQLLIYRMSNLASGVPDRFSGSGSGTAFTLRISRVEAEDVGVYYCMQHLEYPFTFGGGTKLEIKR ... 6
